So I've got a bunch of binders here, and I need their Ka values.
- system: T1, recombinant human IL-23R/Fc chimera (R&D Systems) (human, UniProt Q5VWK5 24-353)
- T1 construct: bought; also called human IL-23R/Fc fusion protein; rhIL23RFc
- T1 sequence (looked up): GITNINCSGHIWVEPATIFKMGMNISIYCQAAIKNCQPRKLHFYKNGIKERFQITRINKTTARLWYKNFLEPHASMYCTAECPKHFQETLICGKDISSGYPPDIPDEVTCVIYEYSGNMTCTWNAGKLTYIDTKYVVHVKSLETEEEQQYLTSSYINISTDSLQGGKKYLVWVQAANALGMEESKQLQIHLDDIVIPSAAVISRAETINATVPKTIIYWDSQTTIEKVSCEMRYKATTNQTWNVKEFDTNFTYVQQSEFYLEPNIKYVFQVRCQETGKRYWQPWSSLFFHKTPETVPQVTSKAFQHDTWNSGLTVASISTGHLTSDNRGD
- protocolDetails: SPR (Biacore), captured IL-23R/Fc, ATRIMER
Write the answer as a number in M⁻¹, unit excluded.

Query :: Let me know recorded Ka for A9E ATRIMER (designed binder) EPPTQKPKKIVNAKKDVVNTKMFEELKSRLDTLAQEVALLKEQQALQTVCLKGTKVHMKCFLAFTQTKTFHEASEDCISRGGTLSTPQTGSENDALYEYLRQSVGNEAEIWLGLNGSALTNTWVDMTGARIAYKNWETEITAQPDGGLGYWGENCAVLSGAANGKWFDKRCRDQLPYICQFGIV , thanks.
Result :: 5.21e+08

Query :: Let me know recorded Ka for 101-51-1A9 ATRIMER (designed binder, ATRIMER is a homotrimer; one protomer is given., not shown: C-terminal purification tag: Myc/His6 (pANA4) or HA-StrepII (pANA10)) EPPTQKPKKIVNAKKDVVNTKMFEELKSRLDTLAQEVALLKEQQALQTVCLKGTKVHMKCFLAFTQTKTFHEASEDCISRGGTLSTPQTGSENDALYEYLRQSVGNEAEIWLGLNGSALTNTWVDMTGARIAYKNWEPARQPQPGGGFGYFGENCAVLSGAANGKWFDKRCRDQLPYICQFGIV , thanks.
Result :: 1.05e+09
